Recorded values, source patent US20210155689A1.

measured-on: T1, human LAG-3 on cells (HEK293-hLAG-3 stable cell line) (human, UniProt P18627 23-525)
T1 sequence: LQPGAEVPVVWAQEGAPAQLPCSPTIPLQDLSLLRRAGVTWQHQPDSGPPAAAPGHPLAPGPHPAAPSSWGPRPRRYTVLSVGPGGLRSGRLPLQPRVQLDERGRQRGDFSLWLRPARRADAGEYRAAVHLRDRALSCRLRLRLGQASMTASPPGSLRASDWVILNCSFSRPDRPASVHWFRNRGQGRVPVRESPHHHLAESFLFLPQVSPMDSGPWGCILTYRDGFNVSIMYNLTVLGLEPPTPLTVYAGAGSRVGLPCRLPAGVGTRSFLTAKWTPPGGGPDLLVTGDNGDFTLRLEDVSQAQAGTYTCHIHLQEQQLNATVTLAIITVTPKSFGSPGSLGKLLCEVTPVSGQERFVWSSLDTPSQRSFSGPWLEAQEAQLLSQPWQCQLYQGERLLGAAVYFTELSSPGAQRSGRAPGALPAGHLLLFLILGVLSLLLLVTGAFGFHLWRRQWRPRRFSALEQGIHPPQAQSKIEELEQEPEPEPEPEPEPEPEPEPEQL
assay-comment: FACS, HEK293-hLAG-3, antibody 0.013 nM
recorded-metric: Mean fluorescence intensity

- binder: "556F6B8-10 humanized antibody (antibody, V domains shown) VH: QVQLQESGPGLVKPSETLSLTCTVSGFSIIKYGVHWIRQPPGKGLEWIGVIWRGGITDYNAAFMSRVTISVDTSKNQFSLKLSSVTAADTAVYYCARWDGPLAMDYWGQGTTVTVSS VL: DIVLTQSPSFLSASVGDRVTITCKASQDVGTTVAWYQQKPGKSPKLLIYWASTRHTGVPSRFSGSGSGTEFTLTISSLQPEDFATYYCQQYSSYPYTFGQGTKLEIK"
  endpoint-result: 4
- binder: "556F6B8-12 humanized antibody (antibody, V domains shown) VH: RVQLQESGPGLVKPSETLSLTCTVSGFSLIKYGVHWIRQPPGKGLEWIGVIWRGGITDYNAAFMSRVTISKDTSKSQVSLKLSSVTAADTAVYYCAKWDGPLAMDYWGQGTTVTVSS VL: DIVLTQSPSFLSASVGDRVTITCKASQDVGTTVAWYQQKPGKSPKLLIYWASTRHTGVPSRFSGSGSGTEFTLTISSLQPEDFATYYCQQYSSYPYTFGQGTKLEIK"
  endpoint-result: 8
- binder: "556F6B8-6 humanized antibody (antibody, V domains shown) VH: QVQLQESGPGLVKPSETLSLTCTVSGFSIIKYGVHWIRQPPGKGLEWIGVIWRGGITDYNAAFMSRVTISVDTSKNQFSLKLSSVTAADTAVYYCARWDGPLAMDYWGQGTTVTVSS VL: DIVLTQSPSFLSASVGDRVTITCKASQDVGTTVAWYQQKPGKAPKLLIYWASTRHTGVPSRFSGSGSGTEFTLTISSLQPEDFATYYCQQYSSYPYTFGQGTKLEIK"
  endpoint-result: 4
